Where these numbers come from: ChEMBL document CHEMBL1137468

- Tested on: MCF7
- TEST_SUMMARY: Selectivity ratio of IC50 for human CCL186 cells to IC50 for human MCF7 cells
- Type: functional
VALUE_KIND: Ratio IC50

{"MOLECULAR_STRING": "COc1cc(OC)c(C2CCN(C)CC2)cc1C(=O)/C=C/c1ccccc1", "ENDPOINT_VALUE": 2.3}
{"MOLECULAR_STRING": "COc1ccc(C2CCN(C)CC2)cc1C(=O)/C=C/c1ccc(Cl)cc1", "ENDPOINT_VALUE": 1.6}
{"MOLECULAR_STRING": "COc1cc(OC)c(C2CCN(C)CC2)cc1C(=O)/C=C/c1ccccc1F", "ENDPOINT_VALUE": 3.5}
{"MOLECULAR_STRING": "COc1cc(OC)c(C2CCN(C)CC2)c(O)c1C(=O)/C=C/c1ccc(N2CCN(C)CC2)cc1", "ENDPOINT_VALUE": 0.7}
{"MOLECULAR_STRING": "COc1cc(OC)c(N2CCC(N3CCCCC3)CC2)cc1C(=O)/C=C/c1ccccc1F", "ENDPOINT_VALUE": 2}
{"MOLECULAR_STRING": "COc1ccc(C(=O)/C=C/c2ccccn2)c(OC)c1", "ENDPOINT_VALUE": 2.2}

----------
Listed next: entries and their corresponding Ratio IC50.
- Tested on: MCF7
- TEST_SUMMARY: Selectivity ratio of IC50 for human CCL186 cells to IC50 for human MCF7 cells
- Type: functional

{"MOLECULE": "COc1ccc(C(=O)/C=C/c2ccncc2)c(OC)c1 [DILMEFONE]", "Ratio IC50": 2.6}
{"MOLECULE": "COc1ccc(C(=O)/C=C/c2ccc(Cl)cc2)c(OC)c1", "Ratio IC50": 1.7}
{"MOLECULE": "COc1cc(OC)c(C2CCN(C)CC2)cc1C(=O)/C=C/c1ccccc1C", "Ratio IC50": 1.6}
{"MOLECULE": "COc1cc(OC)c(C2CCN(C)CC2)cc1C(=O)/C=C/c1ccncc1", "Ratio IC50": 1.9}
{"MOLECULE": "COc1cc(OC)c(N2CCC(N3CCCCC3)CC2)cc1C(=O)/C=C/c1ccccc1Cl", "Ratio IC50": 1.8}
{"MOLECULE": "COc1ccc(/C=C/C(=O)c2ccc(N3CCNCC3)cc2)c(OC)c1", "Ratio IC50": 1.4}
{"MOLECULE": "O=C(/C=C/c1ccccc1Cl)c1ccc(N2CCCCC2)cc1", "Ratio IC50": 1.1}
{"MOLECULE": "COc1ccc(/C=C/C(=O)c2cc(C3CCN(C)CC3)c(OC)cc2OC)cc1", "Ratio IC50": 2.4}
{"MOLECULE": "COc1cc(OC)c(C2CCN(C)CC2)cc1C(=O)/C=C/c1ccc(C)cc1", "Ratio IC50": 1.6}
{"MOLECULE": "COc1cc(OC)c(N2CCN(C)CC2)cc1C(=O)/C=C/c1ccc(N2CCN(C)CC2)cc1", "Ratio IC50": 3.4}

----------
Listed next: entries and their corresponding Ratio IC50.
- Tested on: MCF7
- TEST_SUMMARY: Selectivity ratio of IC50 for human CCL186 cells to IC50 for human MCF7 cells
- Format: functional

{"MOLECULAR_STRING": "COc1cc(OC)c(C2CCN(C)CC2)c(O)c1C(=O)/C=C/c1ccc(C#N)cc1", "TARGET_OR_SYSTEM": "MCF7", "Ratio IC50": 2.7}
{"MOLECULAR_STRING": "COc1ccccc1/C=C/C(=O)c1cc(C2CCN(C)CC2)c(OC)cc1OC", "TARGET_OR_SYSTEM": "MCF7", "Ratio IC50": 1.8}
{"MOLECULAR_STRING": "O=C(/C=C/c1ccc(Cl)cc1)c1ccc(N2CCCCC2)cc1", "TARGET_OR_SYSTEM": "MCF7", "Ratio IC50": 2}
{"MOLECULAR_STRING": "COc1ccccc1/C=C/C(=O)c1c(OC)cc(OC)c(C2CCN(C)CC2)c1O", "TARGET_OR_SYSTEM": "MCF7", "Ratio IC50": 0.7}
{"MOLECULAR_STRING": "COc1cc(OC)c(N2CCN(C)CC2)cc1C(=O)/C=C/c1ccncc1", "TARGET_OR_SYSTEM": "MCF7", "Ratio IC50": 2.2}
{"MOLECULAR_STRING": "COc1ccc(C(=O)/C=C/c2cccnc2)c(OC)c1", "TARGET_OR_SYSTEM": "MCF7", "Ratio IC50": 2.7}
{"MOLECULAR_STRING": "COc1cc(OC)c(C2CCN(C)CC2)c(O)c1C(=O)/C=C/c1ccccc1", "TARGET_OR_SYSTEM": "MCF7", "Ratio IC50": 1.3}
{"MOLECULAR_STRING": "COc1cc(OC)c(C2CCN(C)CC2)c(O)c1C(=O)/C=C/c1ccc(Cl)cc1", "TARGET_OR_SYSTEM": "MCF7", "Ratio IC50": 0.9}
{"MOLECULAR_STRING": "COc1ccc(C2CCN(C)CC2)cc1C(=O)/C=C/c1ccccc1", "TARGET_OR_SYSTEM": "MCF7", "Ratio IC50": 2.3}
{"MOLECULAR_STRING": "COc1ccc(C2CCN(C)CC2)cc1C(=O)/C=C/c1ccccc1Cl", "TARGET_OR_SYSTEM": "MCF7", "Ratio IC50": 2.1}
